Let's look at some molecules and their measured decrease in NMB receptor affinity compared with #1.
- tested.system: rat NMB receptor (Rattus norvegicus)
- Construct: a full length NMB-preferring bombesin receptor clone generated from rat esophagus; expressed in transfected cells; host or cells: BALB 3T3 cells
- Sequence (P24053 whole entry): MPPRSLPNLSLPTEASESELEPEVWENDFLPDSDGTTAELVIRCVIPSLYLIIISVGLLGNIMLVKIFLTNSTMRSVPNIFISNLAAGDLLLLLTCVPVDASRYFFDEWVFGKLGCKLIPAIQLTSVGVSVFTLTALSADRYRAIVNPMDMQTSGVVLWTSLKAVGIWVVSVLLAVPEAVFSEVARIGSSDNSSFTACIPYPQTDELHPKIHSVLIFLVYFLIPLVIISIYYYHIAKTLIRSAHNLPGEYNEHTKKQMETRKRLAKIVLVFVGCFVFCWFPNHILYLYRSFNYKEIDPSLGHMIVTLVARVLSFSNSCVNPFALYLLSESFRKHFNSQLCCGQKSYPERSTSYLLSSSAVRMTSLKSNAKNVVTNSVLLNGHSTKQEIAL
- measurement.description: Binding of 125I-[D-Tyr0]NMB to NMB-R transfected BALB 3T3 cells
- applied.conditions: structure-function comparison of Table 1 values
- Description: Cells were passaged every 3-4 days at confluence, using 0.1% trypsin in 1 mM EDTA. Rat glioblastoma C-6 tumor cells were maintained similarly and were passaged weekly at confluence. Both cell lines were cultured at 37°C in a 5% CO2 atmosphere. Rat AR 42J pancreatic acinar cells were cultured in Dulbecco's modified Eagle's medium (DMEM) without antibiotics and supplemented with 10% (vol/vol) fetal calf serum. The incubation atmosphere consisted of 10% CO2-90% humidified air at 37°C.
Where a SMILES comes first, the peptide text is derived from it. Bridges are numbered along the chain shown (N, C = ends). [ ]: non-standard residue; d: D form. 2Nal = N[C@@H](Cc1ccc2ccccc2c1)C(=O)O; d2Nal = N[C@H](Cc1ccc2ccccc2c1)C(=O)O
Write it as a number; the unit fold goes unstated.

# count of solved cases: 3
- molecule: "CC(C)[C@@H]1NC(=O)[C@H](Cc2c[nH]cn2)NC(=O)[C@@H](Cc2c[nH]c3ccccc23)NC(=O)[C@H](Cc2ccc(O)cc2)NC(=O)[C@@H](NC(=O)[C@H](N)Cc2ccc3ccccc3c2)CSSC[C@@H](C(=O)N[C@@H](Cc2ccc3ccccc3c2)C(N)=O)NC1=O [Analog #14, [His^5]-cyclo SS-octa] (H-[d2Nal]CY[dW]HVC[2Nal]-NH2; disulfide 2-7; N-terminus assumed)"
  reported.result: 50
- molecule: "C[C@@H](O)[C@H](NC(=O)[C@@H]1CSSC[C@H](NC(=O)[C@H](N)Cc2ccc3ccccc3c2)C(=O)N[C@@H](Cc2ccc(O)cc2)C(=O)N[C@H](Cc2c[nH]c3ccccc23)C(=O)N[C@@H](CCCCN)C(=O)N[C@@H](Cc2ccc3ccccc3c2)C(=O)N1)C(N)=O [Analog #2, [Nal^6,Thr^8]-cyclo SS-octa]"
  reported.result: 4
- molecule: "CC(C)[C@@H]1NC(=O)[C@H](CCCCN)NC(=O)[C@@H](Cc2c[nH]c3ccccc23)NC(=O)[C@H](Cc2ccc(O)cc2)NC(=O)[C@@H](NC(=O)[C@H](N)Cc2ccc3ccccc3c2)CSSC[C@@H](C(=O)N[C@H](Cc2ccc3ccccc3c2)C(N)=O)NC1=O [Analog #8, [D-Nal^8]-cyclo SS-octa] (H-[d2Nal]CY[dW]KVC[d2Nal]-NH2; disulfide 2-7; N-terminus assumed)"
  reported.result: 6

Task: Fill blank: measured decrease in NMB receptor affinity compared with #1 of the molecule CC(C)[C@@H]1NC(=O)[C@H](CCCCN)NC(=O)[C@@H](Cc2c[nH]c3ccccc23)NC(=O)[C@H](Cc2ccc(O)cc2)NC(=O)[C@H](NC(=O)[C@H](N)Cc2ccc3ccccc3c2)CSSC[C@@H](C(=O)N[C@@H](Cc2ccc3ccccc3c2)C(N)=O)NC1=O [Analog #10, [D-Cys^2]-cyclo SS-octa] (H-[d2Nal][dC]Y[dW]KVC[2Nal]-NH2; disulfide 2-7; N-terminus assumed) is ____.
Output: 5

Task: Fill blank: measured decrease in NMB receptor affinity compared with #1 of the molecule CC(C)[C@@H]1NC(=O)[C@H](CCCCN)NC(=O)[C@@H](Cc2c[nH]c3ccccc23)NC(=O)[C@H](Cc2ccc(O)cc2)NC(=O)[C@@H](NC(=O)[C@H](N)Cc2ccc3ccccc3c2)CSSC[C@H](C(=O)N[C@@H](Cc2ccc3ccccc3c2)C(N)=O)NC1=O [Analog #11, [D-Cys^7]-cyclo SS-octa] (H-[d2Nal]CY[dW]KV[dC][2Nal]-NH2; disulfide 2-7; N-terminus assumed) is ____.
Output: 5
